# Test Target: SfurOBP11 (Sogatella furcifera, UniProt V5T6E3)
# Sequence (V5T6E3 entry or part of it): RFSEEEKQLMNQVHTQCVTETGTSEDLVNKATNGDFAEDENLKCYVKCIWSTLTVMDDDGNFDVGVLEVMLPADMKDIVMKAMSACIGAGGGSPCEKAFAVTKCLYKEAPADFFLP
# Assay Info: biochemical
# Format: binding
# Condition Set: ligand concentration 12, replicate 2
Below, each entry is listed alongside its reported Fluorescence intensity, fluorescence competitive binding assay, OBP11.
Outcome Measure: Fluorescence intensity, fluorescence competitive binding assay, OBP11

>>> df
                                   molecule  observed_result
0  CCCCCCCCCCCCCCCC(=O)OC [MH(methyl hexadecanoate)]            43002
1                CCC/C=C/CO [(E)-2-hexenol]            23726
2                                  CCCCCC=O            22698
3  C/C(=C\CO)CCC[C@H](C)CCC[C@H](C)CCCC(C)C            18892
4                               CCCCCCCCC=O            26618
5                                 OC1CCCCC1            23225
6                          Cc1ccc(C(C)C)cc1            23071

* * *

# Test Target: SfurOBP2 (Sogatella furcifera)
# Sequence (V5T759 entry or part of it): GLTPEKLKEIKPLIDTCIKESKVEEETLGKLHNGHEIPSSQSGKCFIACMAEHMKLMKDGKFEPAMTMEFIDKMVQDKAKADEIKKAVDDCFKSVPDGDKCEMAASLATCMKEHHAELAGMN
# Assay Info: biochemical
# Assay type: binding
# Condition Set: ligand concentration 4 (unit not given), replicate column 1 of 3
Outcome Measure: Fluorescence competitive binding assay, OBP2 (raw fluorescence reading)

In [3]: df
Out[3]:
                                    compound  observed_result
 0                O=Cc1ccccc1 [benzaldehyde]            14937
 1  Cc1cc(C(C)(C)C)c(O)c(C(C)(C)C)c1 [BHT(2,6-di-tert-butyl-4-methylphenol)]            14970
 2           CCCCCCCCCCCCCCCC [n-hexadecane]            14292
 3  CC(C)COC(=O)CCCCC(=O)OCC(C)C [DA(diisobutyl adipate)]            17231
 4   CC1=CC[C@@H](C(C)(C)O)CC1 [α-terpineol]            20390
 5                 CCCCCC(C)=O [2-heptanone]            17338
 6  C/C(=C\CO)CCC[C@H](C)CCC[C@H](C)CCCC(C)C [plant alcohol]            16483
 7  C=C(C)C1CC=C(C)CC1 (single isomer, unassigned; (+)) [(+)-limonene]            19168
 8            CCCCCCCCCCCCO [lauryl alcohol]            21586
 9                     CCCCCCCCC=O [nonanal]            23391
10     Cc1ccc(C(C)C)cc1 [4-isopropyltoluene]            17068
11    CC(=O)/C=C/C1=C(C)CCCC1(C)C [β-Ionone]            20326
12      O=C(c1ccccc1)c1ccccc1 [benzophenone]            15645
13  C=C1CC/C=C(\C)CC[C@@H]2[C@@H]1CC2(C)C [β-caryophyllene]            12040
14             CC(=O)c1ccccc1 [acetophenone]            18465
15            CCCCCCCCCCCCCC [n-tetradecane]            17519
16  CCCCCCCCCCCCCCCC(=O)OC [MH(methyl hexadecanoate)]            32085
17        CCCCCCCCCCCCCCCCCCC [n-nonadecane]            21686
18                       CCCCCCCC [n-octane]            17604
19                CCCCCCC=CCO [2-nonen-1-ol]            25374
20  C=CC(C)(O)CCC=C(C)C (centres unmarked) [linalool]            18324
21                 CCCCCCCCCCC [n-hendecane]            13631
22              c1ccc2ccccc2c1 [naphthalene]            24365

* * *

# Test Target: SfurOBP11 (Sogatella furcifera, UniProt V5T6E3)
# Assay Info: biochemical
# Assay type: binding
# Condition Set: ligand concentration 20, replicate 3
Below, each entry is listed alongside its reported Fluorescence intensity, fluorescence competitive binding assay, OBP11.
Outcome Measure: Fluorescence intensity, fluorescence competitive binding assay, OBP11

>>> df
                                    molecule  observed_result
 0                      CCCCCCCC=O [octanal]            26182
 1            CCCCCCCCCCCCCC [n-tetradecane]            33542
 2  C=CC(C)(O)CCC=C(C)CCC=C(C)C (mixture of isomers) [nerolidol]            23801
 3  CCCCCCCCCCCCCCCC(=O)OC [MH(methyl hexadecanoate)]            62669
 4                 CCCCCCCCCCC [n-hendecane]            28561
 5  C=C/C(C)=C/C/C=C(\C)CCC=C(C)C [α-farnesene]            35313
 6             CC(=O)c1ccccc1 [acetophenone]            24921
 7                  CCCCCC=O [caproaldehyde]            19854
 8  COC(=O)c1ccccc1 [benzoic acid methylester]            21920
 9  C=C1CC/C=C(\C)CC[C@@H]2[C@@H]1CC2(C)C [β-caryophyllene]            30224
10  C/C(=C\CO)CCC[C@H](C)CCC[C@H](C)CCCC(C)C [plant alcohol]            25906
11   CC1=CC[C@@H](C(C)(C)O)CC1 [α-terpineol]            25312
12                       CCCCCCCC [n-octane]            25454
13                O=Cc1ccccc1 [benzaldehyde]            17540
14            CCCCCCCCCCCCO [lauryl alcohol]            18042
15                CC/C=C\CCO [(Z)-3-hexenol]            14975
16                     CCCCCCCCC=O [nonanal]            22028
17  CC(C)COC(=O)CCCCC(=O)OCC(C)C [DA(diisobutyl adipate)]            20999
18              CCCCCCCCCCCCC=O [tridecanal]            27795
19  C[C@@H]1CC[C@H]2C(C)(C)[C@H]3C[C@@]12CC[C@@]3(C)O [cedrol]            33015
20    CC(=O)/C=C/C1=C(C)CCCC1(C)C [β-Ionone]            17555
21     Cc1ccc(C(C)C)cc1 [4-isopropyltoluene]            24060
22  C=C(C)C1CC=C(C)CC1 (single isomer, unassigned; (+)) [(+)-limonene]            17452
23      O=C(c1ccccc1)c1ccccc1 [benzophenone]            14489
24        CCCCCCCCCCCCCCCCCCC [n-nonadecane]            28655
25                  OC1CCCCC1 [cyclohexanol]            23769
26                 CCCCCC(C)=O [2-heptanone]            20212
27     CCCCCCCCCCOCCCCCCCCCC [didecyl ether]            72923
28           CCCCCCCCCCCCCCCC [n-hexadecane]            23432
29                CCCCCCC=CCO [2-nonen-1-ol]            24669
30                CCC/C=C/CO [(E)-2-hexenol]            19956
31         CCCCCCCCCCCCCCCCCC [n-octadecane]            23426
32  Cc1cc(C(C)(C)C)c(O)c(C(C)(C)C)c1 [BHT(2,6-di-tert-butyl-4-methylphenol)]            15984
33  C=CC(C)(O)CCC=C(C)C (centres unmarked) [linalool]            28048
34              c1ccc2ccccc2c1 [naphthalene]            23815

Numbers sourced from paper PMC6409085.
